# System: Staphylococcus aureus
# Protocol: Antimicrobial activity against Staphylococcus aureus ATCC 6538 by MTT assay
# Format: functional
Measured MIC50 by item

# Chem smiles, System, Value operator, MIC50 [µg/mL]
data = [
    ("Nc1ncnc2c1ncn2[C@@H]1O[C@H](COC(=O)c2ccc(F)cc2)[C@@H](O)[C@H]1O", "Staphylococcus aureus", ">", 100),
    ("CCCCCC(=O)OC[C@H]1O[C@@H](n2cnc3c(N)ncnc32)[C@H](O)[C@@H]1O", "Staphylococcus aureus", ">", 100),
    ("COc1ccc(CC(=O)OC[C@H]2O[C@@H](n3cnc4c(N)ncnc43)[C@@H]3OC(C)(C)O[C@@H]32)cc1OC", "Staphylococcus aureus", ">", 100),
    ("Nc1ncnc2c1ncn2[C@@H]1O[C@H](COC(=O)Cc2ccccc2F)[C@@H](O)[C@H]1O", "Staphylococcus aureus", "=", 51.4),
    ("Nc1ncnc2c1ncn2[C@@H]1O[C@H](COC(=O)c2cccc(Cl)c2)[C@@H](O)[C@H]1O", "Staphylococcus aureus", "=", 9.4),
    ("Nc1ncnc2c1ncn2[C@@H]1O[C@H](COC(=O)c2cccc(F)c2)[C@@H](O)[C@H]1O", "Staphylococcus aureus", "=", 20.4),
    ("CC1(C)O[C@@H]2[C@H](O1)[C@@H](COC(=O)Cc1ccc(Cl)cc1)O[C@H]2n1cnc2c(N)ncnc21", "Staphylococcus aureus", "=", 7.2),
    ("Nc1ncnc2c1ncn2[C@@H]1O[C@H](COC(=O)c2ccccc2)[C@@H](O)[C@H]1O", "Staphylococcus aureus", "=", 67.4),
]

Data provenance is ChEMBL document CHEMBL3621182.
